# Tgt: Biotinylated CoV2 Spike ECD PreS-AVI protein (SARS-CoV-2, UniProt P0DTC2 14-1208)
# Assay Method Text: Octet binning; competitor 11F8
Observed Property: binning response
# print the numeric value only

Example results:
15H1 VHH-Fc (Fc fusion) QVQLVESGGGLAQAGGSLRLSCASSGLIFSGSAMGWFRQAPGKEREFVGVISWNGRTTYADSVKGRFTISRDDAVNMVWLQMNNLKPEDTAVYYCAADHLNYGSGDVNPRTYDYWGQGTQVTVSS :: 0.09
1A11 VHH-Fc (Fc fusion) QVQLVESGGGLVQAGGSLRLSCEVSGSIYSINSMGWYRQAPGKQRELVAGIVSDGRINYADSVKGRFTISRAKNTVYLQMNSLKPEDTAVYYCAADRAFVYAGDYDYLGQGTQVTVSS :: 0.13
1E4 VHH-Fc (Fc fusion) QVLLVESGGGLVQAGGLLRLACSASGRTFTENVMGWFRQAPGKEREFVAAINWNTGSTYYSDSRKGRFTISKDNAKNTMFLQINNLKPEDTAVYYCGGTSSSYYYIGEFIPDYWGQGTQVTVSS :: 0.11

Continue with the next binder.
Query (binder): 15H7 VHH-Fc (Fc fusion) QVQLVESGGRLVQAGGSLRLSCAAPGRTFRNLTLGWFRQAPGKEREFVASTSWPDDEMTYYTDSVKGRFTISRDNAKNTVYLQMNSLKPEDTAVYYCAAASWSGRSTLSYDYDYWGQGTQVTVST ; field requested: binning response
0.11
